Test: NCI Yeast Anticancer Drug Screen. Data for the rad50 strain (AID 155);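 note: 0% = growth of vehicle-only cultures of the same strain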
Settings: S. cerevisiae rad50 strain growth inhibition; at 50.0 µM; stronger effect = higher value
About 79,000 compounds went through this panel and 15% of them were active in at least one assay; those are over-represented in the sample as a whole.
Entries annotated with measured growth inhibition
Write it as a number; the unit % goes unstated.

Some solved entries appear below for comparison.
- Compound: "CC(C)[C@]12O[C@H]1[C@@H]1O[C@]13[C@]1(O[C@H]1C[C@H]1C4=C(C(=O)OC4)[C@@H](O)C[C@@]13C)[C@@H]2O"
  Readout label: "growth inhibition"
  Val: -8.4
- Compound: "O=C1NC(=S)NC(=O)C1=Cc1ccc2ccccc2n1"
  Readout label: "growth inhibition"
  Val: -7.9
- Compound: "CCOP(=O)(OCC)C(N)Cc1c[nH]c2ccccc12 (configuration not stated)"
  Readout label: "growth inhibition"
  Val: 13.9
- Compound: "O=C(O)C1CCCN1[N+](=O)[O-] (configuration not stated)"
  Readout label: "growth inhibition"
  Val: -21.7
- Compound: "O=c1c(O)c(-c2ccccc2)oc2ccccc12.[Zr]"
  Readout label: "growth inhibition"
  Val: -22.1
- Compound: "CCCCOCCOP(=O)(OCCOCCCC)OCCOCCCC"
  Readout label: "growth inhibition"
  Val: 7.85
- Compound: "COC(=O)c1c(C(=O)OC)c1=[N+]=[N-]"
  Readout label: "growth inhibition"
  Val: 5.2
- Compound: "NC1=NC(N)=N1"
  Readout label: "growth inhibition"
  Val: 1.95

Entry O=C1OC(=O)C2CC3C(CC12)C1(Cl)C(Cl)=C(Cl)C3(Cl)C1(Cl)Cl (configuration not stated) : reported growth inhibition = ?
-15.5

Entry O=C1C2C3c4ccccc4C(C2C(=O)N1c1ccccc1)[n+]1ccccc13 (configuration not stated) : reported growth inhibition = ?
47.8

Entry `N#CCO` : reported growth inhibition = ?
-3.7

Entry CCC1(O)N=C(c2ccccc2)c2ccccc2-n2cccc21 (configuration not stated) : reported growth inhibition = ?
1.7

Entry `CC1=CC(=Nc2ccc(N(CCCl)CCCl)cc2)C=C(C)C1=O` : reported growth inhibition = ?
3.2
